viability, T/C listing for selected molecules.
Tested on: 695427-040-R-J1-PDC complex spheroid viability
Experiment: Anticancer human tumor 695427-040-R-J1-PDC patient-derived colon adenocarcinoma cell line growth inhibition [POLQ]
Details: second compound 0.0316 µM; first compound 10 µM; active compounds read low
QUANTITY_NAME: viability, T/C (%)

molecule="CCc1cc2c(N3CCc4c(cc(Cn5ccnc5)cc4-c4cn(C)nc4C(F)(F)F)C3=O)ccnc2c(OC)n1 + Cc1cccc(N(C)C(=O)C2C(O)CCN2c2nc(C)cc(C(F)(F)F)c2C#N)c1" measured=92.4
molecule="COc1cc(C2c3cc4c(cc3C(OC3OC5COC(C)OC5C(O)C3O)C3COC(=O)C23)OCO4)cc(OC)c1O (stereo not given) + Nc1ccc(C#CCN(C(=O)Cc2ncc(C(F)(F)F)cc2C(F)(F)F)c2ccc(F)cc2)nn1" measured=87.4
molecule="CC1COCCN1c1cc(C2(O)CC3CCC(C2)O3)c2cnn(-c3ccn[nH]3)c2n1 (stereo not given) + COC1C(OC(N)=O)C(O)C(Oc2ccc3c(O)c(NC(=O)c4ccc(O)c(CC=C(C)C)c4)c(=O)oc3c2C)OC1(C)C" measured=41.9
molecule="COc1cccc2c1C(=O)c1c(O)c3c(c(O)c1C2=O)CC(O)(C(=O)CO)CC3OC1CC(N)C(O)C(C)O1 (stereo not given) + Cc1cccc(N(C)C(=O)C2C(O)CCN2c2nc(C)cc(C(F)(F)F)c2C#N)c1" measured=51
molecule="CC1COCCN1c1cc(C2(O)CC3CCC(C2)O3)c2cnn(-c3ccn[nH]3)c2n1 (stereo not given) + Cc1cccc(N(C)C(=O)C2C(O)CCN2c2nc(C)cc(C(F)(F)F)c2C#N)c1" measured=47.3
molecule="CCCS(=O)(=O)Nc1ccc(F)c(C(=O)c2c[nH]c3ncc(-c4ccc(Cl)cc4)cc23)c1F + Nc1ccc(C#CCN(C(=O)Cc2ncc(C(F)(F)F)cc2C(F)(F)F)c2ccc(F)cc2)nn1" measured=88.8
molecule="CCCS(=O)(=O)Nc1ccc(F)c(C(=O)c2c[nH]c3ncc(-c4ccc(Cl)cc4)cc23)c1F + Cc1cccc(N(C)C(=O)C2C(O)CCN2c2nc(C)cc(C(F)(F)F)c2C#N)c1" measured=86.8
molecule="O=C(c1cc(Cc2n[nH]c(=O)c3ccccc23)ccc1F)N1CCN(C(=O)C2CC2)CC1 + Cc1cccc(N(C)C(=O)C2C(O)CCN2c2nc(C)cc(C(F)(F)F)c2C#N)c1" measured=93.9
molecule="CCc1cc2c(N3CCc4c(cc(Cn5ccnc5)cc4-c4cn(C)nc4C(F)(F)F)C3=O)ccnc2c(OC)n1 + COC1C(OC(N)=O)C(O)C(Oc2ccc3c(O)c(NC(=O)c4ccc(O)c(CC=C(C)C)c4)c(=O)oc3c2C)OC1(C)C" measured=97.2
molecule="CCc1cc2c(N3CCc4c(cc(Cn5ccnc5)cc4-c4cn(C)nc4C(F)(F)F)C3=O)cc(C)nc2c(OC)n1 + COC1C(OC(N)=O)C(O)C(Oc2ccc3c(O)c(NC(=O)c4ccc(O)c(CC=C(C)C)c4)c(=O)oc3c2C)OC1(C)C" measured=99.1

###

Tested on: 695427-040-R-J1-PDC complex spheroid viability
Experiment: Anticancer human tumor 695427-040-R-J1-PDC cell line growth inhibition [POLQ];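 also: spheroids exposed to compounds for seven days; 100% = DMSO vehicle control viability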
Details: second compound 3.16 µM; first compound 3.16 µM; active compounds read low
QUANTITY_NAME: viability, T/C (%)

compound="O=C(Nc1ccc(O)c(NS(=O)(=O)c2ccc(F)cc2)c1)c1ccc(-c2ccccc2)cc1 + Nc1ccc(C#CCN(C(=O)Cc2ncc(C(F)(F)F)cc2C(F)(F)F)c2ccc(F)cc2)nn1" system="695427-040-R-J1-PDC complex spheroid viability" quantity_name="viability, T/C" measured=112
compound="COc1cc2cc(C(=O)CCC(=O)O)sc2cc1OC + COC1C(OC(N)=O)C(O)C(Oc2ccc3c(O)c(NC(=O)c4ccc(O)c(CC=C(C)C)c4)c(=O)oc3c2C)OC1(C)C" system="695427-040-R-J1-PDC complex spheroid viability" quantity_name="viability, T/C" measured=103
compound="Nc1ccn(C2OC(CO)C(O)C2(F)F)c(=O)n1 (stereo unspecified) + Cc1cccc(N(C)C(=O)C2C(O)CCN2c2nc(C)cc(C(F)(F)F)c2C#N)c1" system="695427-040-R-J1-PDC complex spheroid viability" quantity_name="viability, T/C" measured=70.2
compound="C#Cc1c(F)ccc2cc(O)cc(-c3ncc4c(N5CC6CCC(C5)N6)nc(OCC56CCCN5CC(F)C6)nc4c3F)c12 (stereo unspecified) + COC1C(OC(N)=O)C(O)C(Oc2ccc3c(O)c(NC(=O)c4ccc(O)c(CC=C(C)C)c4)c(=O)oc3c2C)OC1(C)C" system="695427-040-R-J1-PDC complex spheroid viability" quantity_name="viability, T/C" measured=104
compound="CNCc1ccc(-c2[nH]c3cc(F)cc4c3c2CCNC4=O)cc1 + COC1C(OC(N)=O)C(O)C(Oc2ccc3c(O)c(NC(=O)c4ccc(O)c(CC=C(C)C)c4)c(=O)oc3c2C)OC1(C)C" system="695427-040-R-J1-PDC complex spheroid viability" quantity_name="viability, T/C" measured=117
compound="C=CC(=O)N1CCN(c2nc(=O)n(-c3c(C)ccnc3C(C)C)c3nc(-c4c(O)cccc4F)c(F)cc23)C(C)C1 (stereo unspecified) + COC1C(OC(N)=O)C(O)C(Oc2ccc3c(O)c(NC(=O)c4ccc(O)c(CC=C(C)C)c4)c(=O)oc3c2C)OC1(C)C" system="695427-040-R-J1-PDC complex spheroid viability" quantity_name="viability, T/C" measured=125
compound="O=C(c1cc(Cc2n[nH]c(=O)c3ccccc23)ccc1F)N1CCN(C(=O)C2CC2)CC1 + Cc1cccc(N(C)C(=O)C2C(O)CCN2c2nc(C)cc(C(F)(F)F)c2C#N)c1" system="695427-040-R-J1-PDC complex spheroid viability" quantity_name="viability, T/C" measured=103
compound="CC1COCCN1c1cc(C2(O)CC3CCC(C2)O3)c2cnn(-c3ccn[nH]3)c2n1 (stereo unspecified) + Nc1ccc(C#CCN(C(=O)Cc2ncc(C(F)(F)F)cc2C(F)(F)F)c2ccc(F)cc2)nn1" system="695427-040-R-J1-PDC complex spheroid viability" quantity_name="viability, T/C" measured=62.4
compound="COc1cccc2c1C(=O)c1c(O)c3c(c(O)c1C2=O)CC(O)(C(=O)CO)CC3OC1CC(N)C(O)C(C)O1 (stereo unspecified) + COC1C(OC(N)=O)C(O)C(Oc2ccc3c(O)c(NC(=O)c4ccc(O)c(CC=C(C)C)c4)c(=O)oc3c2C)OC1(C)C" system="695427-040-R-J1-PDC complex spheroid viability" quantity_name="viability, T/C" measured=70.1
compound="O=c1[nH]cc(F)c(=O)[nH]1 + Cc1cccc(N(C)C(=O)C2C(O)CCN2c2nc(C)cc(C(F)(F)F)c2C#N)c1" system="695427-040-R-J1-PDC complex spheroid viability" quantity_name="viability, T/C" measured=101
compound="CCCS(=O)(=O)Nc1ccc(F)c(C(=O)c2c[nH]c3ncc(-c4ccc(Cl)cc4)cc23)c1F + Nc1ccc(C#CCN(C(=O)Cc2ncc(C(F)(F)F)cc2C(F)(F)F)c2ccc(F)cc2)nn1" system="695427-040-R-J1-PDC complex spheroid viability" quantity_name="viability, T/C" measured=111
